# Subject of test: Human erythrocyte acetylcholinesterase (Homo sapiens)
# Sequence (P22303 32-617 isoform P22303-2 limits assumed): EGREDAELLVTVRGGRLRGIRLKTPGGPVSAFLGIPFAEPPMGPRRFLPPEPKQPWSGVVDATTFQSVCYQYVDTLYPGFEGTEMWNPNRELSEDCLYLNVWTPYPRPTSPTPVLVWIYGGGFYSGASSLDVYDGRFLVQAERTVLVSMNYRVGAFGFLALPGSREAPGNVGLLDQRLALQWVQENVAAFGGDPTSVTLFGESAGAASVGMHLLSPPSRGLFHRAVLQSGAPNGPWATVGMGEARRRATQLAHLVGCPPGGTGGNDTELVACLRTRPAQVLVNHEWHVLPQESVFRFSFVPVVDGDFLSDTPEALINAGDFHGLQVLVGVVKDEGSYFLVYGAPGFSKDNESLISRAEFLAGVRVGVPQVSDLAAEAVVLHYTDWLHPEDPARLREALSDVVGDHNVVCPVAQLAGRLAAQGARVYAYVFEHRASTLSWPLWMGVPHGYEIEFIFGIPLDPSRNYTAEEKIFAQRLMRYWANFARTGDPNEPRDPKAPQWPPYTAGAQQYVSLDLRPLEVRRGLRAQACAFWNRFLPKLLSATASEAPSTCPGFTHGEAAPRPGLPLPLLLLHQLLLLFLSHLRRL
Counter-ions that a name gives are not always drawn.
Label Satisfied when IC50 is strictly below 10 µM; at or above that, label Not satisfied.

{"columns": ["Molecule", "Subject of test", "Group"],
 "data": [
  ["C#CC(C)NCCc1cccc(OC(=O)N(C)CC)c1 (stereo not drawn)", "Human erythrocyte acetylcholinesterase (Homo sapiens)", "Not satisfied"],
  ["C#CCNCCc1cccc(OC(=O)N(C)CCC)c1", "Human erythrocyte acetylcholinesterase (Homo sapiens)", "Not satisfied"],
  ["C#CCNC(C)Cc1cccc(OC(=O)N(C)CC)c1 (stereo not drawn)", "Human erythrocyte acetylcholinesterase (Homo sapiens)", "Not satisfied"],
  ["C#CC(C)NCCc1cccc(OC(=O)N(C)C)c1 (stereo not drawn)", "Human erythrocyte acetylcholinesterase (Homo sapiens)", "Satisfied"],
  ["C#CCNC(C)Cc1cccc(OC(=O)N(C)CCC)c1 (racemic) [Compound 19, HCl]", "Human erythrocyte acetylcholinesterase (Homo sapiens)", "Not satisfied"]
]}

# next molecule below
Input: Find out if reported IC50 for CCN(C)C(=O)Oc1cccc(CCNC)c1 is less than 10 µM
Output: Not satisfied

----------
# Subject of test: MAO-B (Rattus norvegicus)
# Sequence (P19643 1-520): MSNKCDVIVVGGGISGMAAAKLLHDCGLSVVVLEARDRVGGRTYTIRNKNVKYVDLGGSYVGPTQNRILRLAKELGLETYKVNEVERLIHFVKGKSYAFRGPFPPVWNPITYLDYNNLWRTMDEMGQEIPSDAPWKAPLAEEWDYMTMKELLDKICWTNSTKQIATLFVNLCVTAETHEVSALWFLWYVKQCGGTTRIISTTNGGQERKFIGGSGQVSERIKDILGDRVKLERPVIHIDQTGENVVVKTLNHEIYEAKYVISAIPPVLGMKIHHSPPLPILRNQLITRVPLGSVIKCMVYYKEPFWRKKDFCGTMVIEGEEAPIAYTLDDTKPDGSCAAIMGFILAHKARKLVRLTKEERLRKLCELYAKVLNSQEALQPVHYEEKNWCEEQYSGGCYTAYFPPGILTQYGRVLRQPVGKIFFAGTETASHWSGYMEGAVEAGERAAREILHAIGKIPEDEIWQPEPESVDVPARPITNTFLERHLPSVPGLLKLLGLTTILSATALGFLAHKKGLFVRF
Readout type: IC50 (nM)
One number for each entry, in nM.

{"columns": ["Compound", "Subject of test", "Readout type", "Observed result"],
 "data": [
  ["C#CCNC(C)Cc1cccc(OC(=O)N(C)CC)c1 (stereo not shown)", "MAO-B (Rattus norvegicus)", "IC50", 2000],
  ["C#CCNC(C)Cc1cccc(OC(=O)N(C)C)c1 (stereo not shown)", "MAO-B (Rattus norvegicus)", "IC50", 6000],
  ["C#CCN(C)C(C)Cc1cccc(OC(=O)N(C)CC)c1 (stereo not shown)", "MAO-B (Rattus norvegicus)", "IC50", 200]
]}

// switching to the query compound
Input: Enter reported IC50 observed with MAO-B (Rattus norvegicus) for C#CCN(C)CCc1cccc(OC(=O)N(C)CC)c1
Output: 1000

----------
# Subject of test: whole brain AChE (Mus musculus, UniProt P21836)
# Construct: the brains rapidly removed (minus cerebellum), weighed and homogenized in 0.1M phosphate buffer pH 8.0; from tissue; host or cells: mouse brain (minus cerebellum) homogenate supernatant
# Sequence (P21836 32-614): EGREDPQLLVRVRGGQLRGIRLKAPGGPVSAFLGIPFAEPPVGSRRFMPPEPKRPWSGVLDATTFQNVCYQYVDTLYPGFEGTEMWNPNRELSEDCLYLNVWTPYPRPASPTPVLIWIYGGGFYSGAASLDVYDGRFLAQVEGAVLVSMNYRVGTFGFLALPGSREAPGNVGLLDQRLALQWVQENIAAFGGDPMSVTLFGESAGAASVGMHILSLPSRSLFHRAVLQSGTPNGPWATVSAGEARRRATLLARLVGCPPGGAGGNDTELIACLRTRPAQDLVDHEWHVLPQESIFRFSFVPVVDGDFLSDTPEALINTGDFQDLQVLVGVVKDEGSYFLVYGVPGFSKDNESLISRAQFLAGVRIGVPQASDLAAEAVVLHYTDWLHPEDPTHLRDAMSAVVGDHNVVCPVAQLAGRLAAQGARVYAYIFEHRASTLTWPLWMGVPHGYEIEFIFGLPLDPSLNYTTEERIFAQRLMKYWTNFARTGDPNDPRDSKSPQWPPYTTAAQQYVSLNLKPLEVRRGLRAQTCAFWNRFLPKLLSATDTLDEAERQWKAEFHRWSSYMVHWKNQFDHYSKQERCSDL
# Protocol text: Ex vivo measurement of brain AChE inhibition after sub-cutaneous administration
# Type: in vivo, mice
# Experimental parameters: sc; sub-cutaneous, mouse whole brain, at peak of activity; read-out: AChE Inhibition Ex vivo ED50 (AC)
I'd be grateful if you could share measured ED50 for these entries.
Give bare numbers, in µmol/kg.

{"columns": ["Compound", "ED50 [µmol/kg]"],
 "data": [
  ["C#CCNC(C)Cc1cccc(OC(=O)N(C)CC)c1 (stereo not drawn) [Compound 17]", 64]
]}

// switching to the query compound
Input: Quick one: ED50 of C#CCNCCc1cccc(OC(=O)N(C)C)c1 [Compound 11] ?
Output: 3.2

----------
# System: MAO-A
# Protocol text: Inhibition of MAO activity ex vivo (brain tissue), 5-HT substrate
# Type: in vivo, mice
# Experimental parameters: mouse brain tissue
Where a name gives a salt, the structure may show the parent alone.
Readout type: MAO-A Inhibition Ex vivo ED50 (µmol/kg)
Answers are plain numbers, in µmol/kg.

{"columns": ["Compound", "Unit spec", "Observed result"],
 "data": [
  ["C#CCN(C)CCc1cccc(OC(=O)N(C)CC)c1 [Compound 15]", "µmol/kg", 35]
]}

I'm hoping you can list MAO-A Inhibition Ex vivo ED50 for every compound here, please.
1. C#CCNCCc1cccc(OC(=O)N(C)CC)c1 [Compound 13]
2. C#CCNCCc1cccc(OC(=O)N(C)C)c1 [Compound 11]
3. C#CCN(C)C(C)Cc1cccc(OC(=O)N(C)C)c1 (racemic) [Compound 20, HCl]

Output:
1: 75; 2: 40; 3: 6

----------
# System: MAO-B
# Protocol text: Inhibition of MAO activity ex vivo (brain tissue), PEA substrate
# Assay type: in vivo, mice
# Experimental parameters: mouse brain tissue
Structures can show the parent of a compound that is named as a salt.
Readout type: MAO-B Inhibition Ex vivo ED50 (µmol/kg)
One number for each entry, in µmol/kg.

{"columns": ["Molecule", "MAO-B Inhibition Ex vivo ED50, µmol/kg"],
 "data": [
  ["C#CCNCCc1cccc(OC(=O)N(C)CC)c1", 50],
  ["C#CCN(C)CCc1cccc(OC(=O)N(C)CC)c1", 35]
]}

I'm hoping you can list MAO-B Inhibition Ex vivo ED50 for every molecule here, please.
1. C#CCNC(C)Cc1cccc(OC(=O)N(C)CC)c1 (centres unmarked)
2. C#CCN(C)C(C)Cc1cccc(OC(=O)N(C)CCCCCC)c1 (racemic)

Output:
1. 40
2. 3.4

I'm hoping you can list MAO-B Inhibition Ex vivo ED50 for every molecule here, please.
1. C#CCN(C)C(C)Cc1cccc(OC(=O)N(C)C2CCCCC2)c1 (racemic) [Compound 28, HCl]
2. C#CCNC(C)Cc1cccc(OC(=O)N(C)CCC)c1 (racemic) [Compound 19, HCl]
3. C#CCNCCc1cccc(OC(=O)N(C)CCC)c1

Output:
[1.75, 1.5, 0.6]

I'm hoping you can list MAO-B Inhibition Ex vivo ED50 for every molecule here, please.
1. C#CCN(C)C(C)Cc1cccc(OC(=O)N(C)C)c1 (racemic) [Compound 20, HCl]
2. C#CCN(C)CCc1cccc(OC(=O)N(C)C)c1

Output:
1. 7
2. 21

----------
# Subject of test: whole brain AChE (Mus musculus)
# Construct: the brains rapidly removed (minus cerebellum), weighed and homogenized in 0.1M phosphate buffer pH 8.0; from tissue; host or cells: mouse brain (minus cerebellum) homogenate supernatant
# Protocol text: Ex vivo measurement of brain AChE inhibition after sub-cutaneous administration
# Type: in vivo, mice
# Experimental parameters: sc; sub-cutaneous, mouse whole brain, at peak of activity; read-out: AChE Inhibition Ex vivo ED50 (AC)
Structures can show the parent of a compound that is named as a salt.
Label satisfied when ED50 is strictly below 20 µmol/kg; at or above that, label not satisfied.

Illustrative cases are given below, each with its answer.
{"columns": ["Compound", "Group"],
 "data": [
  ["CN(C)CCc1cccc(OC(=O)N(C)C)c1", "satisfied"],
  ["C#CCN(C)CCc1cccc(OC(=O)N(C)C)c1", "satisfied"]
]}

Input: Find out if reported ED50 for C#CCN(C)CCc1cccc(OC(=O)N(C)CC)c1 is less than 20 µmol/kg
Output: not satisfied

Input: // repeat for C#CCN(C)C(C)Cc1cccc(OC(=O)N(C)C2CCCCC2)c1 (racemic) [Compound 28, HCl] and report
Output: not satisfied

Input: // repeat for CNCCc1cccc(OC(=O)N(C)C)c1 and report
Output: not satisfied

----------
I'd be grateful if you could share measured Time to peak activity t for these entries.
# Subject of test: whole brain AChE (Mus musculus, UniProt P21836)
# Construct: the brains rapidly removed (minus cerebellum), weighed and homogenized in 0.1M phosphate buffer pH 8.0; from tissue; host or cells: mouse brain (minus cerebellum) homogenate supernatant
# Protocol text: Ex vivo measurement of brain AChE inhibition after sub-cutaneous administration
# Type: in vivo, mice
# Experimental parameters: AChE inhibition
Counter-ions that a name gives are not always drawn.
Answers are plain numbers, in min.

Some entries whose results are on file:
{"columns": ["Molecule", "Time to peak activity t (min)"],
 "data": [
  ["C#CCNC(C)Cc1cccc(OC(=O)N(C)C)c1 (centres unmarked)", 15],
  ["C#CCN(C)CCc1cccc(OC(=O)N(C)CC)c1", 30],
  ["C#CCN(C)C(C)Cc1cccc(OC(=O)N(C)C2CCCCC2)c1 (racemic) [Compound 28, HCl]", 60],
  ["C#CCNCCc1cccc(OC(=O)N(C)CCC)c1", 30],
  ["C#CCNCCc1cccc(OC(=O)N(C)C)c1", 15]
]}

Input: Quick one: Time to peak activity t of CNCCc1cccc(OC(=O)N(C)C)c1 ?
Output: 10
